Target: human recombinant adrenergic α2A receptor (Homo sapiens)
Construct: expressed in transfected cells; host or cells: insect Sf9 cells
Sequence (P08913 1-465): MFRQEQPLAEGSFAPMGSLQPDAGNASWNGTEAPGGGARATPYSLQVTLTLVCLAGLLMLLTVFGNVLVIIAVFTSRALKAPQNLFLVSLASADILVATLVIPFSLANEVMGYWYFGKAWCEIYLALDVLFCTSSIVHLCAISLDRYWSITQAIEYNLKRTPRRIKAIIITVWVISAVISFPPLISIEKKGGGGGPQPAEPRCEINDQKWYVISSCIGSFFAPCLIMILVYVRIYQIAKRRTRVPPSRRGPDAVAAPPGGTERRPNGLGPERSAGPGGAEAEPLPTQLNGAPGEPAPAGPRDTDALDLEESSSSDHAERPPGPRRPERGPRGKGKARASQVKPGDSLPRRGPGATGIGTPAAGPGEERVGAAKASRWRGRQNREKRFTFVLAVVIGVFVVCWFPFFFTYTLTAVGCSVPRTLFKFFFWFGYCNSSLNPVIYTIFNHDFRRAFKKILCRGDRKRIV
Assay: Radioligand binding, adrenergic α2A ([3H]MK-912)
Details: compound at 0.1 μM; [3H]MK-912; repeat datapoints each shown; 0.1 µM
RECORDED_METRIC: Percentage inhibition of ligand binding, Adrenergic α2A (0.1 μM) (%)

Completed entries (count: 2):
INSERT INTO measurements (compound, readout_units, observed_value) VALUES
  ('Cc1cnc2c(c1)c1c(n2CC(O)c2ccncc2)CCN2CCCC12 (single isomer, unassigned) [IV-209b]', '%', 10),
  ('Cc1ccc2c(c1)c1c(n2CC(N)c2ccncc2)CCN(C)CC1 (single isomer, unassigned) [154a]', '%', 4);

[a] Cc1ccc2c(c1)c1c(n2CC(C)(O)c2cccnc2)CC(C)N(C)C1 (single isomer, unassigned) [II-146c]
[b] Cc1cnc2c(c1)c1c(n2CC(N)c2ccc(C#N)cc2)CCN(C)C1 (single isomer, unassigned) [159b]
// pick min by Percentage inhibition of ligand binding, Adrenergic α2A (0.1 μM): a , b Kindly state the label of the option you pick.
b
(b: −12%, a: 8%)

---

target: rat adrenergic α1B receptor (Rattus norvegicus); construct: rat adrenergic α1B receptor obtained from Wistar Rat liver; from tissue; host or cells: Wistar rat liver; assay: Radioligand binding, adrenergic α1B ([3H]Prazosin); settings: compound at 0.1 μM; [3H]Prazosin; repeat assays, each datapoint shown; 0.1 µM
Sequence (P15823 whole entry): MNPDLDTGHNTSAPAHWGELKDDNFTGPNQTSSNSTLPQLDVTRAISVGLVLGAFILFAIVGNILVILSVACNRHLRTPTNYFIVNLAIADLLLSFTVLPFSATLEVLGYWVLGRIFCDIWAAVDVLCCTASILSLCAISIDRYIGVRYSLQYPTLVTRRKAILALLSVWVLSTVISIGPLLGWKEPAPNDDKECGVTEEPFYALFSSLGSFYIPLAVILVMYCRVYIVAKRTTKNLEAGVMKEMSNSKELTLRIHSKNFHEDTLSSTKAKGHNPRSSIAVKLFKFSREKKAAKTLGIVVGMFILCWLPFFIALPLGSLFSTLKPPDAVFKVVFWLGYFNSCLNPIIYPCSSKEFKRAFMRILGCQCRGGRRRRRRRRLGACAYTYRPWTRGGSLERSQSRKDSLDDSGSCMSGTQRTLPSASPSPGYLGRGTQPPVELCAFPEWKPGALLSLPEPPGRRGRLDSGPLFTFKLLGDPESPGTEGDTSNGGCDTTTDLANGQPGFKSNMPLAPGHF
RECORDED_METRIC: Percentage inhibition of ligand binding, Adrenergic α1B (%)

Completed entries (count: 4):
INSERT INTO measurements (compound, test_system, observed_value) VALUES
  ('OC(Cn1c2c(c3cc(Cl)ccc31)CNCC2)c1ccncc1 (single isomer, unassigned) [10b]', 'rat adrenergic α1B receptor (Rattus norvegicus)', 28),
  ('Cc1cnc2c(c1)c1c(n2CC(O)c2ccncc2)CCNC1 (single isomer, unassigned) [58b]', 'rat adrenergic α1B receptor (Rattus norvegicus)', 24),
  ('Cc1ccc2c(c1)c1c(n2CC(O)c2cccnc2)CCNC1 (centres unmarked) [compound 9]', 'rat adrenergic α1B receptor (Rattus norvegicus)', 5),
  ('CN1CCc2c(n(CC(O)c3ccncc3)c3ccc(Cl)cc23)C1 (single isomer, unassigned) [41a]', 'rat adrenergic α1B receptor (Rattus norvegicus)', 43);

[a] CN1CCc2c(c3cc(Cl)ccc3n2CC(O)c2cccnc2)C1 (single isomer, unassigned) [7a]
[b] Cc1ccc2c(c1)c1c(n2CC(OC(=O)C(N)C(C)C)c2ccncc2)CCN(C)C1 (single isomer, unassigned) [25b]
[c] Cc1ccc2c(c1)c1c(n2CC(O)c2ccccn2)CN(C)CC1 (single isomer, unassigned) [22a]
Rank the items in ascending order with respect to Percentage inhibition of ligand binding, Adrenergic α1B. Your task in answering is to list the labels in the requested order.
b, c, a

Cited source: patent US8791132B2
